# tested_target: GlcNAc(b1-3)Gal(b1-4)GlcNAc
# test: glycan array binding signal (z-score within array); higher = stronger binding
# assay_setup: glycan notation: IUPAC condensed, linker removed
Shown is part of a subset that was picked to be rich in the strongest signals.
glycan array binding signal (z-score) overview
readout_type: glycan array binding signal (z-score)

binder	readout_type	assay_result
BC2L-D C-terminal domain (Burkholderia cenocepacia), Q39MQ9_BURS3 (protein) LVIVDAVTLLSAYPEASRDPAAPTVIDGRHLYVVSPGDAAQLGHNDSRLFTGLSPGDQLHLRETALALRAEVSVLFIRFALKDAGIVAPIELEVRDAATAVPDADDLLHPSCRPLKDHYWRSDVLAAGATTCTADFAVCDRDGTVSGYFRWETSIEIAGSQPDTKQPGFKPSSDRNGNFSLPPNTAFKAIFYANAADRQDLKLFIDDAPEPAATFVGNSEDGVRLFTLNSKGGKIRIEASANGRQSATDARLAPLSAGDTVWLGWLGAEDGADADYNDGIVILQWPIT	glycan array binding signal (z-score)	-0.241
PNGase F (Flavobacterium meningosepticum) (protein) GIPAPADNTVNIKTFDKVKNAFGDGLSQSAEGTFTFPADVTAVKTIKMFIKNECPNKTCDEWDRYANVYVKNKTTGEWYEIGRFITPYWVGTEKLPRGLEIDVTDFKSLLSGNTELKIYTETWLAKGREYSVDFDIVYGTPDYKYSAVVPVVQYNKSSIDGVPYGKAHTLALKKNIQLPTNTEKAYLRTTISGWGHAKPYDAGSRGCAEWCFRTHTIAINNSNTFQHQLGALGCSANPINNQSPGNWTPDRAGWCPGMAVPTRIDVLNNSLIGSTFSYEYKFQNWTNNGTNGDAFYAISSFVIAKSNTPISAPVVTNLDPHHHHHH	glycan array binding signal (z-score)	-0.264
Na-CTL-1 (Necator americanus) (protein) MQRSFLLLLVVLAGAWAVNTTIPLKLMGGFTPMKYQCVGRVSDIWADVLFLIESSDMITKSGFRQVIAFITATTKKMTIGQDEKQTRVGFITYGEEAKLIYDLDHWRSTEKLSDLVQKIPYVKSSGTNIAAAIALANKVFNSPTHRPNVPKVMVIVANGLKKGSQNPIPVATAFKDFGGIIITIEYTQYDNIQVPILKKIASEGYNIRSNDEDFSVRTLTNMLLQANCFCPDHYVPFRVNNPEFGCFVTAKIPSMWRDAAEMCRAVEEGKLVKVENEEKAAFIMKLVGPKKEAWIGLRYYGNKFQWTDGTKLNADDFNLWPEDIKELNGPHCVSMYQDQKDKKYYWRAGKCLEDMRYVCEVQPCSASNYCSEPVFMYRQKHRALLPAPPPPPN	glycan array binding signal (z-score)	-0.383
Epa19 (Candida glabrata) (protein) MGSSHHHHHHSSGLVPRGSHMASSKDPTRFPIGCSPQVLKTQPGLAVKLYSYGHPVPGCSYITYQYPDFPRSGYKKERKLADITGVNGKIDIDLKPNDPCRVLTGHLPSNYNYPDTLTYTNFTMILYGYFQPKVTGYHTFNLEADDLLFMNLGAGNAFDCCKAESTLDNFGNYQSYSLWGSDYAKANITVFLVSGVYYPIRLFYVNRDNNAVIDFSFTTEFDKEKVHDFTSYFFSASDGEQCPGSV	glycan array binding signal (z-score)	-0.29
FimD (Bordetella pertussis) (protein) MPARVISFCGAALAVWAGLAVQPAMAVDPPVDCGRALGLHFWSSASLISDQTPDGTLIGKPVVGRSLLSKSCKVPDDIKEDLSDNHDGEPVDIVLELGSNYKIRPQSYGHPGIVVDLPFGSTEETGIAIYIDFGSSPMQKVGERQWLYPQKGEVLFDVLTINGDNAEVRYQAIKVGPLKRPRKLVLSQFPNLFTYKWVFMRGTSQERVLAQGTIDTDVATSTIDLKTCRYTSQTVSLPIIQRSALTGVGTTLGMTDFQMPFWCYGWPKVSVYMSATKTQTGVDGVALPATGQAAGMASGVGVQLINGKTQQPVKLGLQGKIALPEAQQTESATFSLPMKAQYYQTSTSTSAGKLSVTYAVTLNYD	glycan array binding signal (z-score)	-0.296
